Biological target: Cholecystokinin receptor type A (Rattus norvegicus, UniProt P30551)
Sequence (P30551 whole entry): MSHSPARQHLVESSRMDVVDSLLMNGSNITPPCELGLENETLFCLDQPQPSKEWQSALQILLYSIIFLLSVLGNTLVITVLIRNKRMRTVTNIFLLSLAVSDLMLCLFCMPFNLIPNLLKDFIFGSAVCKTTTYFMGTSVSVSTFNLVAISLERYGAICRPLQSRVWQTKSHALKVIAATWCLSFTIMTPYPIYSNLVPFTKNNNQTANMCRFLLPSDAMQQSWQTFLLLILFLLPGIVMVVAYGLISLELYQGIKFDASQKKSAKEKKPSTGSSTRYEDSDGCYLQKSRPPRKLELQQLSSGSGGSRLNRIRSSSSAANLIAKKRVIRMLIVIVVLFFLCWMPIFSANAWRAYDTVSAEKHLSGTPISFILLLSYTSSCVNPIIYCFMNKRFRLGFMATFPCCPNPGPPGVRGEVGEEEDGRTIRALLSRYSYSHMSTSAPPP
log10 IC50 values for the molecules below.
Heads up: the numbers are on a log10 scale; they represent IC50 in nM.

Below are worked cases with known answers.
O=C(O)CCC(NC(=O)c1cc2ccccc2[nH]1)C(=O)N(C1CCCCC1)C1CCCCC1 (single isomer, unassigned) : 1.77
CCCCCN(CCCCC)C(=O)C(CCC(=O)N1CCCC1)NC(=O)Nc1cccc(OC)c1 (single isomer, unassigned; 15) : 2.23
CCCCCN(CCCCC)C(=O)C(CCC(=O)O)NC(=O)Nc1cccc(OC)c1 (single isomer, unassigned; 14) : 0.65

Any idea what its log10 IC50 is? The molecule is CCCCCN(CCCCC)C(=O)C(CCC(=O)OCc1ccccc1)NC(=O)Nc1ccc(Cl)cc1 (configuration not stated)
3.97

Entry CCCCCN(CCCCC)C(=O)C(CCC(=O)N1CCCC1)NC(=O)Nc1cccc(OC)c1 (single isomer, unassigned; 16) has what log10 IC50?
2.08

log10 IC50 for CCCN(CCC)C(=O)C(CCC(=O)O)NC(=O)c1ccccc1 (configuration not stated) [PROGLUMIDE] ?
5.40

# input molecule: CCCCCN(CCCCC)C(=O)C(CCC(=O)O)NC(=O)c1ccc(Cl)c(Cl)c1 (configuration not stated) [LORGLUMIDE] ; wanted: its log10 IC50
1.26
